- PROTOCOL SUMMARY: Cytotoxicity assay in MT-4 cells
- Type: cell-based
- CONDITION INFO: human; uninfected MT-4 cells, 5 days incubation, Cell Titer Glo; read-out: MT4 CC50
REPORTED PROPERTY: CC50 at 5 days

[
  {
    "COMPOUND": "COC(=O)N[C@@H](C)C(=O)Oc1c2n(cc(C(=O)NCc3ccc(F)cc3F)c1=O)[C@@H]1CN(C2=O)[C@@H](C)CC[C@]12CC(OC)=NO2 [Example 78]",
    "VALUE REPORTED": "16.2 µM"
  }
]

Suppose we examine the compound CCCCCCCCCOC(=O)OCOc1c2n(cc(C(=O)NCc3ccc(F)cc3F)c1=O)[C@@H]1CN(C2=O)[C@@H](C)CC[C@]12CC(C)=NO2 [Example 186] ; what CC50 at 5 days value has been reported?
≥ 50 µM

Sample COC1=NO[C@@]2(CC[C@H](C)N3C[C@H]2n2cc(C(=O)NCc4ccc(F)cc4F)c(=O)c(OCOC(=O)OCCC(C)C)c2C3=O)C1 [Example 202] — what was its CC50 at 5 days?
21.6 µM

Name the recorded CC50 at 5 days for CCCCCC(=O)OCOc1c2n(cc(C(=O)NCc3ccc(F)cc3F)c1=O)[C@@H]1CN(C2=O)[C@@H](C)CC[C@]12CC(OC)=NO2 [Example 91] .
37.3 µM

May I ask what CC50 at 5 days has been recorded for CCCCCCC(=O)OCOc1c2n(cc(C(=O)NCc3ccc(F)cc3F)c1=O)[C@@H]1CN(C2=O)[C@@H](C)CC[C@]12CC(C)=NO2 [Example 94] ?
17.6 µM

Would you kindly share the measured CC50 at 5 days for CCCCCCCCCCCCCC(=O)Oc1c2n(cc(C(=O)NCc3ccc(F)cc3F)c1=O)[C@@H]1CN(C2=O)[C@@H](C)CC[C@]12CC(OC)=NO2 [Example 26] ?
22.6 µM

Values were extracted from patent US20250122219A1.
